# Assay summary: Titration with 0.5 N sodium hydroxide (pKa)
# Assay type: physicochemical
# Experimental parameters: in water
Property measured: pKa

> print(dat)
                                   molecule  recorded.measurement
1  C[C@@H]1C[C@]2(CC(=O)NC2=O)c2cc(F)ccc2C1=O (relative stereo)                  8.25

// data source = patent US4766141A
